Measured values drawn from patent EP0588622B1 for this set.

MEASUREMENT_NOTES: physchem
QUANTITY_MEASURED: pKa

{"SMILES_STR": "CC(C)(C)c1ccc(C(=O)OO)cc1", "OBSERVED_VALUE": 7.98}
